Population Normal (%) values, listed per item
Test system: U2OS
experiment.summary: Multiplex assay against U2OS
Format: toxicity, cell-based
condition.context: human, 24 h, 1 µM, compound concentration 1 uM, replicate 2
Supply the numeric figure in %, leaving out any unit text.

Solved cases below.
CCN1CCN(c2ccc(Nc3cc(N(C)C(=O)Nc4c(Cl)c(OC)cc(OC)c4Cl)ncn3)cc2)CC1 [INFIGRATINIB]    85
C=CCn1c(=O)c2cnc(Nc3ccc(N4CCN(C)CC4)cc3)nc2n1-c1cccc(C(C)(C)O)n1 [ADAVOSERTIB]    90

Test system U2OS; read-out Population Normal (%); what value for "O=C(Nc1cccnn1)N1CCC(=Cc2cccc(Oc3ccc(C(F)(F)F)cn3)c2)CC1" ?
85

Test system U2OS; read-out Population Normal (%); what value for CN1CCC(=C2c3ccccc3CC(=O)c3sccc32)CC1.O=C(O)/C=C/C(=O)O [KETOTIFEN FUMARATE] ?
92

The measurements presented in this section are drawn from ChEMBL document CHEMBL4689842.
